# TESTED ON: His6 tagged human recombinant FABP4 (Homo sapiens, UniProt P15090)
# Construct: purchased Cayman Chemicals 10009549
# Sequence (P15090 whole entry): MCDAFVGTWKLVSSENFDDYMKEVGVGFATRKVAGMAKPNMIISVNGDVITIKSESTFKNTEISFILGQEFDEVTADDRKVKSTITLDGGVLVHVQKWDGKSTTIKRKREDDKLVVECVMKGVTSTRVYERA
# TEST SUMMARY: FABP4 TR-FRET assay: displacement of BODIPY FL C12 fatty acid
# ASSAY CONDITIONS: 10 μM compound, triplicates, inhibition of BODIPY FL C12 binding

| COMPOUND | inhibition at 10 µM |
| --- | --- |
| CCCCCCC1CCCc2c(n(Cc3ccccc3C)c3c(C(=O)O)cccc23)C1 (centres unmarked) | 84.2% |
| CCCCCCC1CCCc2c(n(Cc3cccc(C(N)=O)c3)c3c(C(=O)O)cccc23)C1 (centres unmarked) | 94.2% |
| CCCCCCC1CCCc2c(n(Cc3cccc(C(=O)O)n3)c3c(C(=O)O)cccc23)C1 (centres unmarked) | 96.5% |
| CCCCC1CCCc2c(n(Cc3cccc(C(N)=O)c3)c3c(C(=O)O)cccc23)C1 (centres unmarked) | 117% |
| CCCCC1CCCc2c(n(Cc3cccc(C#N)c3)c3c(C(=O)NCC(=O)O)cccc23)C1 (centres unmarked) | 41% |
| CCC1CCCCc2c1c1cccc(C(=O)O)c1n2Cc1cccc(C#N)c1 (centres unmarked) | 98.2% |
| CCC1CCc2c(c3cccc(C(=O)O)c3n2Cc2cccc(C#N)c2)C1 (centres unmarked) | 90.3% |
| CCCCCC1CCCCc2c1c1cccc(C(=O)O)c1n2Cc1cccc(C(N)=O)c1 (centres unmarked) | 96.1% |
| CCCCCC1CCCc2c(n(Cc3cccc(C#N)c3)c3c(C(=O)O)cccc23)C1 (centres unmarked) | 96.1% |
| CCCCCCC1CCCc2c(n(Cc3ccccc3C(N)=O)c3c(C(=O)O)cccc23)C1 (centres unmarked) | 82% |
| N#Cc1cccc(Cn2c3c(c4cccc(C(=O)O)c42)CCC(CCc2ccccc2)C3)c1 (centres unmarked) | 92.3% |
| CCCCCC1CCCc2c1c1cccc(C(=O)O)c1n2Cc1cccc(C(N)=O)c1 (centres unmarked) | 84.4% |
| CCCCC1CCCc2c(n(Cc3ccccc3C#N)c3c(C(=O)O)cccc23)C1 (centres unmarked) | 87.3% |
| CCCOC1CCCc2c1n(Cc1cccc(C(N)=O)c1)c1c(C(=O)O)cccc21 (centres unmarked) | 92% |
| CCC1CCc2c(n(Cc3cccc(C(=O)O)c3)c3c(C(=O)O)cccc23)C1 (centres unmarked) | 69.2% |
| CCCCCC1Cc2c(n(Cc3cccc(C(N)=O)c3)c3c(C(=O)O)cccc23)C1 (centres unmarked) | 93.1% |
| CCCCCCC1CCCc2c(n(Cc3cncc(C#N)c3)c3c(C(=O)O)cccc23)C1 (centres unmarked) | 91.8% |

----------
# TESTED ON: His6 tagged human recombinant FABP4 (Homo sapiens, UniProt P15090)
# Construct: purchased Cayman Chemicals 10009549
# TEST SUMMARY: FABP4 TR-FRET assay: displacement of BODIPY FL C12 fatty acid
# ASSAY CONDITIONS: 1 μM compound, triplicates, inhibition of BODIPY FL C12 binding
Below, each entry is listed with its recorded inhibition at 1 µM.

| MOLECULE | UNIT SYMBOL | inhibition at 1 µM |
| --- | --- | --- |
| CCCCC1CCCc2c(n(Cc3cccc(C(N)=O)c3)c3c(C(=O)O)cccc23)C1 (stereo not drawn) | % | 89.4 |
| CCCCCCC1CCCc2c(n(Cc3cccc(C#N)c3)c3c(C(=O)O)cc(F)cc23)C1 (stereo not drawn) | % | 87.3 |
| CCCCCCC1CCCc2c(n(Cc3ccc(C#N)o3)c3c(C(=O)O)cccc23)C1 (stereo not drawn) | % | 81.3 |
| CCC1CCCc2c1n(Cc1cccc(C(=O)O)c1)c1c(C(=O)O)cccc21 (stereo not drawn) | % | 39.6 |
| CCCCCCC1CCc2c(n(Cc3ccccc3F)c3c(C(=O)O)cccc23)C1 (stereo not drawn) | % | 81.8 |
| CCCCCCC1CCc2c(n(Cc3ccc(C)cc3)c3c(C(=O)O)cccc23)C1 (stereo not drawn) | % | 74.3 |
| CCCCCCC1CCCc2c(n(Cc3cccc4ncoc34)c3c(C(=O)O)cccc23)C1 (stereo not drawn) | % | 92 |
| CCC1CCCc2c1c1cccc(C(=O)O)c1n2Cc1cccc(C(=O)O)c1 (stereo not drawn) | % | 52.1 |
| CCC1CCCc2c(n(Cc3cccc(C#N)c3)c3c(C(=O)O)cccc23)C1 (stereo not drawn) | % | 90 |
